REPORTED_CONDITIONS: in methanol, 303.15 K
ASSAY_ENDPOINT: solubility (mole fraction)
// keep it numeric: no unit symbol after the value

Q: Need solubility (mole fraction) of OC[C@H]1O[C@H](O[C@]2(CCl)O[C@H](CCl)[C@@H](O)[C@@H]2O)[C@H](O)[C@@H](O)[C@H]1Cl , thanks.
Result: 0.0362

====

REPORTED_CONDITIONS: in water, 288.15 K
ASSAY_ENDPOINT: solubility (mole fraction)
// keep it numeric: no unit symbol after the value

Q: Need solubility (mole fraction) of OC[C@H]1O[C@H](O[C@]2(CCl)O[C@H](CCl)[C@@H](O)[C@@H]2O)[C@H](O)[C@@H](O)[C@H]1Cl , thanks.
Result: 0.0115

====

REPORTED_CONDITIONS: in isopropanol, 288.15 K
ASSAY_ENDPOINT: solubility (mole fraction)
// keep it numeric: no unit symbol after the value

Q: Need solubility (mole fraction) of OC[C@H]1O[C@H](O[C@]2(CCl)O[C@H](CCl)[C@@H](O)[C@@H]2O)[C@H](O)[C@@H](O)[C@H]1Cl , thanks.
Result: 0.00389

====

REPORTED_CONDITIONS: in water, 298.15 K
ASSAY_ENDPOINT: solubility (mole fraction)
// keep it numeric: no unit symbol after the value

Q: Need solubility (mole fraction) of OC[C@H]1O[C@H](O[C@]2(CCl)O[C@H](CCl)[C@@H](O)[C@@H]2O)[C@H](O)[C@@H](O)[C@H]1Cl , thanks.
Result: 0.0146

====

REPORTED_CONDITIONS: in isopropanol, 328.15 K
ASSAY_ENDPOINT: solubility (mole fraction)

Q: Need solubility (mole fraction) of OC[C@H]1O[C@H](O[C@]2(CCl)O[C@H](CCl)[C@@H](O)[C@@H]2O)[C@H](O)[C@@H](O)[C@H]1Cl , thanks.
Result: 0.015

====

REPORTED_CONDITIONS: in methanol, 283.15 K
ASSAY_ENDPOINT: solubility (mole fraction)

Q: Need solubility (mole fraction) of OC[C@H]1O[C@H](O[C@]2(CCl)O[C@H](CCl)[C@@H](O)[C@@H]2O)[C@H](O)[C@@H](O)[C@H]1Cl , thanks.
Result: 0.0307

====

REPORTED_CONDITIONS: in ethanol, 293.15 K
ASSAY_ENDPOINT: solubility (mole fraction)
// keep it numeric: no unit symbol after the value

Q: Need solubility (mole fraction) of OC[C@H]1O[C@H](O[C@]2(CCl)O[C@H](CCl)[C@@H](O)[C@@H]2O)[C@H](O)[C@@H](O)[C@H]1Cl , thanks.
Result: 0.012

====

REPORTED_CONDITIONS: in ethanol, 303.15 K
ASSAY_ENDPOINT: solubility (mole fraction)
// keep it numeric: no unit symbol after the value

Q: Need solubility (mole fraction) of OC[C@H]1O[C@H](O[C@]2(CCl)O[C@H](CCl)[C@@H](O)[C@@H]2O)[C@H](O)[C@@H](O)[C@H]1Cl , thanks.
Result: 0.0158

====

REPORTED_CONDITIONS: in ethanol, 318.15 K
ASSAY_ENDPOINT: solubility (mole fraction)

Q: Need solubility (mole fraction) of OC[C@H]1O[C@H](O[C@]2(CCl)O[C@H](CCl)[C@@H](O)[C@@H]2O)[C@H](O)[C@@H](O)[C@H]1Cl , thanks.
Result: 0.0228
